Hey, just so you know, these numbers are from the supplement of paper PMC6555819.

test system: PPARg:RXRa 270nM:90nM, anti-RXR (NR concentration 270 nM, RXRa partner concentration 90 nM); assay: PBM binding z-score (relative to random genomic background probes); higher = stronger binding; sequences stand for … in GC…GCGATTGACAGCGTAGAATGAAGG
measured_endpoint: PBM binding z-score
Reply briefly: the number, and no unit.

[[record]]
seq_string = "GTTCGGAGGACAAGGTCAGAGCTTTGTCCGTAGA"
observed_value = 1.29

[[record]]
seq_string = "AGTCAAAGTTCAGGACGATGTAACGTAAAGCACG"
observed_value = 4.75

[[record]]
seq_string = "TCATATAGGTAACACAGGTGAAAGTCGGCATCTA"
observed_value = 3.3

[[record]]
seq_string = "CATACAGGGTCAGCTAGGCCTGAGTAGGGACGGC"
observed_value = 2.94

[[record]]
seq_string = "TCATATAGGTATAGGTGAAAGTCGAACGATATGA"
observed_value = 2.44


Consider now this further sequence.
**Q:** Quick one: PBM binding z-score for GCGGCTGGGGCATCAGCAGGTTACCATAACTTAA ?
**A:** -0.415
